# Lookup of reported melting point keyed by entry

IN: What value of melting point has been reported for the following compound? C[C@]12CCC(=O)N[C@@H]1CCc1cc(-c3ccccc3Cl)ccc12
OUT: 189 to 191 °C

IN: Then COc1ccccc1Cc1ccc(=O)[nH]n1 ?
OUT: 142 to 143 °C

IN: Repeat with O=C(COc1ccccc1)N[C@@H](Cc1ccc(OCCc2coc(-c3ccccc3)n2)cc1)C(=O)O
OUT: 94 to 97 °C

IN: Check Cc1cc(C)c(C)c(-c2cc3cnc(N)nc3nc2NC(=O)NC(C)(C)C)c1C too.
OUT: > 300 °C

---

The following compounds are listed with their measured melting point values.

Check out these entries, answers already filled in.
compound	melting point
O=C(c1ccc([N+](=O)[O-])cc1Cl)N1CCCCc2ccccc21	112 to 114 °C
N#Cc1cnn2c1N(C(=O)CCl)CCC2c1cccc(C(F)(F)F)c1 (configuration not stated)	157 to 159 °C
Cc1nc(-c2ccncc2)sc1-c1cccnc1	113 to 114 °C
CCCc1c(C(=O)OCC)nc2ccccc2c1OCc1ccccc1	127 to 129 °C
CC(C)Cc1nc2ccc(Br)cc2c(-c2ccccc2)c1CN	129 to 130 °C

IN: State the recorded melting point for this entry: CCOC(=O)Cc1c(C(=O)O)c2cc(Oc3ccc(C(F)(F)F)cn3)ccc2n1-c1ccc(OC(C)C)cc1
OUT: 202 °C

IN: And CCOC(=O)Cc1c2cc(F)ccc2n2c(-c3ccc(SC)cc3)nccc12 ?
OUT: 59 to 62 °C

IN: Now the same for O=S1(=O)C(CN2CCCCC2)=Cc2ccc(Cl)cc21
OUT: 154 to 156 °C

IN: Query COC(=O)c1ccc(CCC(C)NCC(O)c2cc3ccccc3o2)cc1 (configuration not stated) next
OUT: 104 to 108 °C

IN: # iterate: Cc1c(N)ccc(Cc2ccc(N)c(C)c2C)c1C
OUT: 141 to 143 °C

IN: Now consider Cc1c(F)c(F)c(C(O)C#N)c(F)c1F (configuration not stated) and answer again.
OUT: 124 °C

IN: Thanks! And O=C1N(c2cc(Cl)nc(Cl)c2)C(=O)C2(Cc3ccc(Br)cc3)CCCN12 (configuration not stated) ?
OUT: 76.3 °C

---

# melting point listing for each entry below

IN: Item under review: O=C1CCC(Cc2ccc(Br)cc2)=C1O . Reported melting point?
OUT: 144 to 145 °C

IN: Same again, this time with CNC(=O)c1cccc(C(O)c2ccc(F)cc2)c1 (stereo not drawn)
OUT: 138 to 139 °C

IN: And then COc1cc(OCCSC)ccc1-c1nc2ncccc2[nH]1 , what is it?
OUT: 197 to 199 °C

IN: Then CCc1ncc(CO)c(NCc2ccc(-c3ccccc3-c3nnnn3C(c3ccccc3)(c3ccccc3)c3ccccc3)cc2)n1 ?
OUT: 118 to 120 °C

IN: Repeat with CSC(C(N)=O)c1cccc(C(=O)c2ccccc2)c1N (stereo not drawn)
OUT: 153 to 155 °C

IN: And then N=C(NO)c1ccc(-c2cnc(-c3ccc(C(=N)NO)cc3)nc2)cc1 , what is it?
OUT: 290 to 292 °C

IN: Item: COc1ccc(CN(C)CCCOc2ccc(S(=O)(=O)c3c(C(C)C)n(C)c4ccccc34)cc2)cc1OC
OUT: 105 °C

IN: COC(=O)c1cn(-c2ccc(OC(C)=O)cc2C)c(C=O)cc1=O , same question.
OUT: 216 to 217 °C

---

Catalogue of melting point values

Example results:
compound	melting point
COc1cc(Nc2c(C#N)cnc3cc(-c4ccc(CNCCc5ccccn5)o4)ccc23)c(Cl)cc1Cl	130 to 135 °C
O=c1cc[nH]c2c([N+](=O)[O-])cc(Cl)cc12	238 to 241 °C
NC(=O)c1cc2c(OCCCN3CCN(C(c4ccccc4)c4ccccc4)CC3)cccc2[nH]1	222 to 223 °C

IN: Fill in: melting point of CCCCCCCCCCCCCCOc1ccc(OCc2ccccc2)c(C(=O)N(CC(=O)OCC)CC(=O)OCC)c1 is ___
OUT: 49 to 50 °C

---

quantityName: melting point

compound	melting point
CC(C)CCCOC1CCC2C3C(=O)C=C4CC(O)CCC4(C)C3CCC12C (configuration not stated)	134 °C
CCOC(=O)/C=C/c1c2c(nn1-c1ccc(F)cc1)C(Cc1ccccc1)CCC2 (configuration not stated)	117 to 118 °C
CC(=O)NCCc1coc2ccc(OCC#N)cc12	72 to 73 °C
CN(CC(=O)O)C(=S)c1cc(-c2ccccc2)nc2ccccc12	228 to 230 °C
COc1ccc(O)c(C(=O)N2CC(Oc3ccc(NC(=O)OC(C)(C)C)cc3)C2)c1	152 to 153 °C

IN: # melting point lookup, item CC(C)c1cn2ccccc2c1S(=O)(=O)c1ccc(OCCCN(C)C)cc1
OUT: 90 to 92 °C

IN: Let us now turn to CN(C)c1ccc(C=Cc2ccc(S(C)(=O)=O)cc2)cc1
OUT: 242 to 243 °C

IN: Same question for NC(=O)Oc1cccc2ccccc12 please.
OUT: 118 °C

IN: // repeat for CCOC(=O)c1c(Nc2cc(F)ccc2[N+](=O)[O-])sc2cc(C)ccc12 and report
OUT: 147 to 149 °C

IN: Proceed to CS(=O)(=O)Nc1ccc(C(=O)c2[nH]c3cc(Cl)ccc3c2CC(=O)O)cc1
OUT: 207 to 210 °C

IN: Query CCOC(=O)Cc1c([N+](=O)[O-])cc([N+](=O)[O-])c2ccccc12 next
OUT: 132 to 134 °C

---

The entries below come with measured melting point values attached.

Example cases with answers are listed next.
molecule	melting point
CCOC(=O)c1cc2c3n(ccc-2n1)C(Br)C=N3 (stereo not drawn)	280 to 282 °C
CC(C)=C1C(=O)N(c2ccc(O)cc2)C(=O)/C1=C(\C)c1cc(C)oc1C	206 to 208 °C
CC(NC(=O)c1cccnc1Oc1ccc(F)cc1)c1ccc(Cl)s1 (single isomer, unassigned; (+))	78 to 80 °C
COc1cc(C)c(C(C)O)cc1NC(=S)N1CCN(c2cc(Cl)cc(Cl)c2)CC1 (stereo not drawn)	166 to 168 °C

IN: Any idea what melting point was measured for O=c1oc(-c2ccccc2Cl)nn1-c1ccccc1C(F)(F)F ?
OUT: 100 to 102 °C

IN: What do we get for CCCCCCCCc1ccc(CCC(NC(C)=O)(C(=O)OCC)C(=O)OCC)s1 ?
OUT: 57 to 58 °C

---

In this section we review reported melting point values for a set of compounds.

compound	melting point
CCN1CC(C#CC2CC2)(C(F)(F)F)c2cc(Cl)ccc2NC1=O (centres undefined)	186 to 188 °C

IN: Reported melting point for COc1ccccc1N1C=C(C(Cl)(Cl)Cl)CN(C(Cl)(Cl)Cl)N1 : what is it?
OUT: 93 to 95 °C

IN: Same for CN(C)C(=O)NCCCCC1CCSS1 (centres undefined)
OUT: 52 to 53 °C

IN: Do the same for COC(=O)C[C@H]1C[C@@H](CCc2c(-c3ccc(F)cc3)c(-c3ccccc3)c(C(=O)NCc3ccccc3)n2C(C)C)OC(C)(C)O1 please
OUT: 65 to 67 °C

IN: Quick one: CC(=O)OS(=O)(=O)OC(C)=O
OUT: 228 °C

IN: Proceed to C=C1SC(=S)N(c2ccc3cc(-c4ccc(OC)c(C(C)(C)C)c4)ccc3c2)C1=O
OUT: 281 to 284 °C

IN: Lookup Cc1cc(C)c2ccc(S(=O)(=O)O)nc2n1
OUT: > 280 °C

IN: COc1ccc(CNc2ccc(O)c(C(=O)O)c2)cc1 , same question.
OUT: 205 to 206 °C

IN: Also check COc1c(Cl)cc(NC(C)=O)c(OC)c1N
OUT: 113 °C

IN: One more compound: CCOC(=O)NNc1cc(-c2ccc(OC)cc2)c(-c2ccc(OC)cc2)nn1
OUT: 212 to 214 °C

---

quantityName: melting point

compound	quantityName	testValue
Cc1nn(C)c2nc3ccccc3c(NCc3ccccc3)c12	melting point	105 °C

IN: // returns reported melting point for input CC(=S)O/C=C\n1nnnc1C
OUT: 135 to 137 °C

IN: And what about the compound COn1c(C)nc2cc(C(=O)c3ccccc3)ccc21 ?
OUT: 67.7 °C

IN: Request: Cc1ccc2nc(CCl)n3cnnc3c2c1
OUT: 175 °C

IN: Input NC(=O)CC(O)CCCCCNC(=O)OCc1ccccc1 (stereo not drawn)
OUT: 100 to 101 °C

IN: Try the compound CC(C)(C)c1cc(C(=O)c2ccccn2)cc2c1OCC2(C)C
OUT: 95 to 97 °C

IN: Next record, please: Nc1nc(N)nc(N2CCNCC2)n1
OUT: 262 to 268 °C

IN: What about this compound? COCc1nc(C=O)c[nH]1
OUT: 100 to 103 °C

IN: Follow-up item: CCOP1(=O)OCC(C)(C)c2cc(OS(C)(=O)=O)ccc2O1 (stereo not drawn)
OUT: 113 to 115 °C

IN: Then what about the compound NC(=O)CNC(=O)C1(N2CCCC2=O)CC1 ?
OUT: 180 °C

IN: Field entry: CCOC(=O)c1ccc(CN(C(C)=O)C(=O)OC(C)(C)C)cc1
OUT: 96 to 97 °C

IN: Follow-up item: Cc1cc2nnc(C)n2nc1-c1ccc(C#N)cc1
OUT: 242 to 244 °C

Reference source: a melting point compilation (Tetko et al.; mined from patent text by program, amines drawn as free bases though some values may be those of a salt)
